Recorded values, source the nanobody polyreactivity screen of Harvey et al. (2022).

# assay: yeast display, Sf9 membrane polyspecificity reagent, FACS + sequencing; frameworks hold sequencing errors
measuredProperty: polyreactivity (PSR sort gate)

QVQLVESGGGLVQAGGSLRLSCAASGGIFAPYAMGWYRQAPGKERELVATISFSGGSTYYADSVKGRFTISRDNAKNTVYLQMNSLKPEDTAVYYCAKRYIYSLLYGLDYWGQGTQVTVSS
low polyreactivity
QVQLVESGGGLVQAGGSLRLSCPASGRTFILNDMGRYRQAPGKEREFVATIDWSGGSSYYADSVKGRFTISRDNAKNTVFLQMNSLKPEDTAVYYCNRAFVPVYDLDYYWGQGTQVTVSS
low polyreactivity
QVQLVESGGGLVQAGGSLRLSCAGSGGPFLDYIGWYRQAPGKEMVLVAAITFSGGSTYYADSVKGRLTISRENAKNTVYVQMNSLKPDDTAVYFCAAGWYDWPKYLLGGYTYYLYDSWRQGTQVTVSS
low polyreactivity

---

# assay: yeast display, Sf9 membrane polyspecificity reagent, FACS + sequencing; frameworks hold sequencing errors
measuredProperty: polyreactivity (PSR sort gate)

Example entries and their recorded answers appear below.
QVQLQESVGGLVQAGGSLRLSCAASGTIFRISDMGSYRQAPGKEREFVAAITYGANTYYADSGKGRFTISRDNAKNTVYLQMNSLKPEDTAVYYCAVPPVKETILDYWGQGTQVTVSS
low polyreactivity
QVQLVESGGGLVQAGGSLRLSCAASGITFSYYAMGWYRQAPGKERELVATIRSSGGSTYYADSVKGRFTISRDNAKNTVYLQMNSLKPEDTAVYYCAVRLWFDYNYWGQGTQVTVSS
low polyreactivity
QVQLVESGGGLVQAGGSLRLSCAASGRTFRKYGMGWYRQAPGKERELVAAITRSGGSTYYADSVKGRFTISRDNAKHTVYLQMNSLKPEDTSVSYCARSPVVVGSFLSYDYWGQGTQVTVSS
high polyreactivity
QVQLEESGGCLVQAGGSLRLSCAASGRIFGSYTMGWYRQAPGKERELVAAISDSGGSTYYADSVKGRFSISRDNAKNTVYLQMNSLKPEDTAVYYCNADWSWYNYYDFDYWGQGTQVTVSS
low polyreactivity
QVQLVESGGGLVQAGGSLRLSCPASGSTFRHYVMGRYRQAPGKERELVAAINWTSGSTNYADSVKGRFTISRDNAKNTVYFQMNSLKPEDTAVYYCAARGPVGYGWRYRPWHDYWGQGTQVTVSS
high polyreactivity
QVQLVESGGGLVQAGGSLRLSCAASGAIFDWYAMGGDRPAPGKERELVADITWSGDSTYYADSVKGRFTISRDHAKNTVYLKMNSLKPEDTAVFYCAADIWFYTYYEYDYWGQGTQVTVSS
high polyreactivity
QVQLVESGGGLVQAGGSLRLSCAASGRTFKYNAMAWYRQAPGTERELVADISYSGDSTYYADSVKGRFTISRDNAKNTVYLQMNSLKPEDTAVYYCNAVLTHGRLWRAHGYWGQGTQVTVSS
high polyreactivity
QVQLVESGGGLVQAGGSLRLSCAASGRTFLHNAMGWYRQAPGKERELVAAITWSGGSTYYADSVKGRFTISRDNAKNTVYLQMNSLKPEDTAVYYCNARHRYYRYGYWGQGTQVTVSS
high polyreactivity

Fill in: polyreactivity (PSR sort gate) of QVQLVESGGGLVQAGGSLRLSCAASGSTFGSYAMGWYRQAAGKERELVAGNSWSGGRTYYADSVKGRFTISRDNAKNTVYLQMNSLKPEDTAVYYCARDTGYYYARYNYWGQGTQVTVSS is ___
low polyreactivity

Then QVQLVESVRGLVQAGGSLLLSCAASGITITHYDMGWYRHSSGKESELVAAITSSGRTYYADSVKGRFSLSRDNAKNTVYLQMNSLKPEDTAVYYCDAEHSWFYGLLGYWGQGTQVTVSW ?
high polyreactivity

Then QVQLVESGGGLVQAGGSLRLSCSASGFIFTYVMGWYRQAPGKERELVAVITNGGSTYYADSVKGRFTISRDNAMNTVYLQMNSLKPEDTAVYYCAARARFRYDSYYYWGQGTQVTVSS ?
high polyreactivity

---

# assay: yeast display, Sf9 membrane polyspecificity reagent, FACS + sequencing; frameworks hold sequencing errors
measuredProperty: polyreactivity (PSR sort gate)

Example entries and their recorded answers appear below.
QVQLVESGGGLVQAGGSLRLSCAASGFIFPTYAMGWYRQAPGKERELVATITSAVRTKYADSVKGRFTISRDNAKNTVYLQMNSLKPEDTAVYYSAAAYTVARFYRYYYWGQGTQVTVSS
high polyreactivity
QVQLVESGGGLVQAGGSLRLSCGASGSFFYFYSMGWYRQAPGKEREVVAAITDGGSTHYADSVKGRFTISRDNAKNTVDLQMNSLKPEDTAVYYCAAQWHYYLGSGYQYDYWGQGTQVTVSS
low polyreactivity
QVQLVESGGGLVQAGGSLRLSCAASGITFADYVMGWYRPAPGKERELVAAISTDGGSTYYADSVKGRFTISRDNAKNTVYLQMNSLKPEDTAVYYCASEWSYPGYEFDYWGQGTQVTVSS
high polyreactivity
QVQLVESGGGLVQAGGSLRLSCAASGNTFVKYVIGWYRQAPGKEREYVAAITVRGNTYYADSVKGRFTISRDNAKNTVYLQMNSLKPEDTAVYYCAARIYYLYKDRRLGYYWGQGTQVTVSS
high polyreactivity

Now, please, on to the next sequence.
Fill in: polyreactivity (PSR sort gate) of QVQLVESGGGLVQAGGILRLSCAASGRTIYYYAMGRYRQAPRKERELVASISWSGGSTYYADSVKGRFTISRDNAKNTVYLQMNSLKPEDTAVSYCNAQYHTYRWLYAVYLSGDYWGQGTQVTVSS is ___
low polyreactivity

---

# assay: yeast display, Sf9 membrane polyspecificity reagent, FACS + sequencing; frameworks hold sequencing errors
measuredProperty: polyreactivity (PSR sort gate)

Example entries and their recorded answers appear below.
QVQLVESGGGLVQAGGSLRLSCAASGSIFYDNAMGWYRQAPGKERELVAAIDDSDRTYYADSEKGRFTISRDNAKNTVYLQMNSLKPEDTAVYYCARDRWKWHYGYDYWGQGTQVTVSS
low polyreactivity
QVQLVESWGGLVQAGGSLRLSCAASGSIFDYNAMGWYRQAPGKERELVAAISSGGSTNYADSVKGRFTISRDNAKNTVYLQMNSLKPEDTAVYYCNTGLYWLGYWPDDYWGQGTQVTVSS
low polyreactivity
QVQLVESGGGLVQAGGSLRLSCAAYGSNFVFNAMGWYRQAPGKERELVAAISNGDGTNYADSVKGRFTISRDNAKNTVYFQINSLKPEDTAVYYCAAVWTTQIVIEYDYWGQGSQVTVSS
low polyreactivity
QVQLVETGAGIVQAGGILRLSCAASGSIFQGNAIGWYRQAPGKERELVAAISGGTSTYYADSEKGRFTISRDNAKNTVYLEMNSLKPEDTAVYYCAARFYGHPYWYDYWGLGTQVTVSS
low polyreactivity
QVQLVESGGGLVQAGGSLRLSCSASGNIFKRYTMGWYRQAPGKERELVAAISGGDSTNYADSVKGRFTISRDNAKKTVYLQMNCLKPEDTAVYYCAGGGLTLWHGYILGYWGQGTQVTVSS
low polyreactivity

Fill in: polyreactivity (PSR sort gate) of QVQLVESGGGLVQAGGSLRLSCASSGTIFSWYTMGRYRQAPGKERELVARITTSGGTTRYADSVKGRFTISRDNAKNTVYFQINSLKPEDTAVYYCAADRSPYWRGYFRYNYWGQGSQVTVSS is ___
high polyreactivity

Then QVQLVESGGGLVKAGGSLRLTCAASGIILRANVMGWYRQAAGKERELLAAISGSGGRTYYADSVKGRFTISRDNAKNSVYLPMNSLKPEDTAVYYCNTPYGLHQAYPYDYWGLGTQVTVSS ?
high polyreactivity

Then QVQLVESGGGLVQAGGSLRLSCAASGIFGWYAMGWYRQARGKEREFVATINWSGGRTYYADSVKGRFTISRDNAKNTVYVQMNSLKPEDTAVYYCAPENYASQYDYWGQGTQVTVSS ?
low polyreactivity

Then QVQLVESGGGLVQAGGSLRLSCAASGSTFNLYAMGWYRQAPGKERELVASISRSGVSTYYADSVKGRFTISRDNAKNTVYLQMNSLKPEDTAVYYCAVDKVLYRLYTGMDYWGQGTQVTVSS ?
low polyreactivity

Then QVQLVESGGGLVQAGGSLRLSCAASGFTFYINALGWYRLAHGKERELVAAITWRSVRTYYADSVKGRFTISRDNAKNTVYLQMNSRKPEDTEVYYCAAASAYRHGEYDYWGQGTQLTVSS ?
low polyreactivity

Then QVQLVESGGGLVQAGGSLRLSCAASGSIFWSYGMGWYRQAPGKERELVASTRYADSVKGRFTISRDNAKNTVYLQMNSLKPEDTAVYYCNVRYYGYRFGDDYWGQGTQVTVSS ?
low polyreactivity

---

# assay: yeast display, Sf9 membrane polyspecificity reagent, FACS + sequencing; frameworks hold sequencing errors
measuredProperty: polyreactivity (PSR sort gate)

Example entries and their recorded answers appear below.
QVQLEESGAGLVQAGGSLRLSCAASGRTFYRYAMGWYIQAPGKERELVAAITSGDRTYYADSVKGRFTISRDNALNTVYLQMNSLKPEYTAVYYCAARRDYWARYYYWGQGTQVTVSS
high polyreactivity
QVRLVESGGGLVQAGGSLRLSCAASGSTFVYYAMGRYRQAPGNERELVAAITSGDSTYYADSVKGRFTISRDNAKNTVYLQMNSLKPEDTAVYYCAKRISYLPVEMDYWGQGTQVSVSS
low polyreactivity
QVQLVEAGGGLVQAGVSLRLSCAASGLTFVPNAMGWYRQAPGKERELVAAISNNGGRTYYADSVKGRFTISRDNAKNTVYLQMNSLKPEDTAVYYCAKYLSPGERHSYDYWGQGTQVTVSS
high polyreactivity
QVQLVESGGGLVQAGGSLRLSCAASGSIFNGYDMGWYRQAPWKERELVAAISLSGDSTYYADSVKGRFTISRDNAKNTVYLQMNSLKPEDTAVYYCAKGTISSYSPYWYYDYSDYEYWGQGTQVTVSS
low polyreactivity
QVQRVESGGGLVQAGGSLRLSCAASGRIFYFNAMGWYRQAPGKEWELVAVINSSGSTDYADSVKGRFTISRDNAKNTVYLQMNSLKPEDTAVYYCAAEVTPSGYGYWGQGTQVTVSS
low polyreactivity

Fill in: polyreactivity (PSR sort gate) of QVQHVESRGGIVQAGGSLRLSCAASGFTFAYYAMGRYRQAPGKERELVAAINYSGGSTYYADSVKGRFTISRDNAKNTVYLQMNSLKPEDTAVYYCATEYYRYDGSSYDYWGQGTQVTVSS is ___
high polyreactivity
